# Test Details: NCI Yeast Anticancer Drug Screen. Data for the rad14 strain (AID 159);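 also: 0% = growth of vehicle-treated control cultures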
# Settings: S. cerevisiae rad14 strain growth inhibition; at 11.0 µM; stronger effect = higher value
Compounds without any hit were thinned out: in the full panel of roughly 79,000, 15% have a hit.
The reader will find reported growth inhibition values listed item by item below.
Quantity Kind: growth inhibition (%)

INSERT INTO measurements (compound, data_value) VALUES
  ('CC1(C)CC(=O)C(/C=N/c2nc(-c3ccc(Br)cc3)cs2)=C(O)C1', 36),
  ('CCCCCCCCCC(=O)N(CCC)CCC', -15),
  ('O=C(NOC(=O)c1ccc([N+](=O)[O-])cc1)c1ccc(Cl)cc1', -7),
  ('CC(C)C(=O)CC(Sc1ccc(N)cc1)c1ccccc1 (stereo not drawn)', 6),
  ('O=C1C(/C=C/c2ccc(Cl)cc2)=NNC2N1N=C1NC(=O)C3(NN12)c1ccccc1-c1ccccc13 (stereo not drawn)', -1),
  ('O=C(NO)c1coc2ccccc2c1=O', -1),
  ('O=C(NCCCCN1CC2CCCC2C1)C(C1CCCCC1)C1CCCCC1 (stereo not drawn)', 52),
  ('COC(=O)c1cnc(Cl)c([N+](=O)[O-])c1', 39),
  ('c1cc(-c2sc(-c3ccncc3)c(-c3ccncc3)c2-c2ccncc2)ccn1', 5),
  ('Cc1cc(Cl)ccc1NC(=O)/C(Cl)=C(/Cl)C(=O)O', 13),
  ('CCCCCCCSCC1C(=O)C23C(O)C1CCC2C12COC3(O)C(O)C1C(C)(C)CCC2O (stereo not drawn)', 84),
  ('CSc1nc(-c2ccccc2)nc(=[N+]2CCOCC2)s1', 25),
  ('CO[C@@]1([C@@H](Cl)c2ccccc2)C(=O)N(C)/C(=C\c2ccccc2)C(=O)N1C', 8);

---

# Test Details: NCI Yeast Anticancer Drug Screen. Data for the rad50EPP+ strain (AID 151);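 also: 0% = growth of vehicle-treated control cultures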
# Settings: S. cerevisiae rad50 mutant strain, at 100.0 µM, stronger effect = higher value
About 79,000 compounds went through this panel and 15% of them were active in at least one assay; those are over-represented in the sample as a whole.
Given measured growth inhibition, output rule met if it is greater than or equal to 30% and rule not met if not.

INSERT INTO results (compound, classification) VALUES
  ('CCCCN(CCC#N)c1ccc(/C=C/c2ccnc3ccccc23)cc1', 'rule not met'),
  ('CC(=O)/C=C/c1cccc([N+](=O)[O-])c1', 'rule met'),
  ('CN(C)CCNc1ccc2ncn3c4ccc(O)cc4c(=O)c1c23', 'rule not met'),
  ('CC(C)=CCC/C(C)=C/CN1C(=O)C=CC1=O', 'rule met'),
  ('O=C(Oc1ccc([N+](=O)[O-])cc1)c1ccc([N+](=O)[O-])cc1', 'rule not met'),
  ('CCN(CC)CCNc1ccc2nc(C)n3c4ccc(OC)cc4c(=O)c1c23', 'rule met'),
  ('CC(=O)CCC1=C(C)C(=O)C(=O)C(C)=C1O', 'rule not met'),
  ('O=[N+]([O-])c1ccc(C(c2c[nH]c3ccccc23)c2c[nH]c3ccccc23)cc1', 'rule not met'),
  ('c1ccc2c(c1)ccn2CCc1c[nH]c2ccccc12', 'rule met'),
  ('CC1(C)OC(=O)C(=Cc2ccc([N+](=O)[O-])s2)C(=O)O1', 'rule met'),
  ('CCC(/C=C/c1ccccc1)=N\Nc1ccc(Cl)c(Cl)c1', 'rule not met'),
  ('O=C(CN(c1ccccc1)c1ccccc1)n1nnc2ccccc21', 'rule met'),
  ('COc1ccc(-c2cc(-c3cc(C)cc(Cl)c3O)nc3[nH]c(=S)[nH]c(=S)c23)cc1', 'rule not met'),
  ('Cn1c(-c2ccc(/C=N\N3CCN(/N=C/c4ccc(-c5c[n+]6ccsc6n5C)cc4)CC3)cc2)c[n+]2ccsc12', 'rule met'),
  ('O=c1c2ccccc2nc(-c2cccc([N+](=O)[O-])c2)n1O', 'rule met'),
  ('CCN(CC)CCNc1ccc(C)c2sc3ccc(O)cc3c(=O)c12', 'rule met'),
  ('O=C1C(=O)c2cccc([N+](=O)[O-])c2-c2ccccc21', 'rule met'),
  ('CC(=O)Oc1ccc2c(c1)Cc1cc(N3C(=O)C=CC3=O)ccc1-2', 'rule met'),
  ('CC(C)C(=O)CC(Sc1ccc(N)cc1)c1ccccc1 (configuration not stated)', 'rule not met'),
  ('CCC[CH2][Sn]([CH2]CCC)([CH2]CCC)/[C](=C/[Si](C)(C)c1ccccc1)c1ccc2c(c1)OCO2', 'rule met'),
  ('O=[N+]([O-])c1ccc2[nH]c3c(-c4ccccc4)nccc3c2c1', 'rule met'),
  ('CNC(=O)OCc1c(COC(=O)NC)c(C)n(-c2ccc(Br)cc2)c1C', 'rule not met');

---

# Test Details: NCI Yeast Anticancer Drug Screen. Data for the rad50EPP+ strain (AID 151);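 also: 0% = growth of vehicle-treated control cultures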
# Settings: S. cerevisiae rad50 mutant strain, at 3.7 µM, stronger effect = higher value
The panel holds about 79,000 compounds, 15% with a hit somewhere; the sample as a whole holds those more often.
The reader will find reported growth inhibition values listed item by item below.
Quantity Kind: growth inhibition (%)

INSERT INTO assay_data (chemical_structure, data_value) VALUES
  ('O=[N+]([O-])c1ccc2[nH]c3c(-c4ccccc4)nccc3c2c1', 43),
  ('COC(=O)/C(C#N)=C\NC(=S)C(N)=S', -24),
  ('Cc1cc(Cl)ccc1NC(=O)/C(Cl)=C(/Cl)C(=O)O', 11),
  ('CC(C)OC(=O)NNc1cc(Cl)ccc1Cl', 27);

---

# Test Details: NCI Yeast Anticancer Drug Screen. Data for the rad52 strain (AID 147);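 also: 0% = growth of vehicle-treated control cultures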
# Settings: S. cerevisiae rad52 mutant growth inhibition; at 1.2 µM; stronger effect = higher value
This is part of a sample that, as a whole, favours compounds with a hit. Of some 79,000 tested, about 15% had one in any assay.
Quantity Kind: growth inhibition (%)

INSERT INTO results (compound, quantity_kind, data_value) VALUES
  ('CNCC(C)CNC', 'growth inhibition', -40),
  ('N#C/C(=C\NC(=S)Nc1ccc(S(N)(=O)=O)cc1)C(=O)c1ccc2ccccc2c1', 'growth inhibition', -2),
  ('C=C(C(=O)OC)N1C(=O)CC(C)C1=O (configuration not stated)', 'growth inhibition', 0),
  ('CCOc1ccc(N)c(S)c1', 'growth inhibition', 1),
  ('CCN(CC)CCNc1ccc2ncn3c4ccc(O)cc4c(=O)c1c23', 'growth inhibition', 9),
  ('CN(C)CCNc1ccc2ncn3c4ccc(O)cc4c(=O)c1c23', 'growth inhibition', -10),
  ('Cn1c(-c2ccc(/C=N\N3CCN(/N=C/c4ccc(-c5c[n+]6ccsc6n5C)cc4)CC3)cc2)c[n+]2ccsc12', 'growth inhibition', 14),
  ('Nc1cc2c(cc1N)-c1ccccc1C2=O', 'growth inhibition', -3),
  ('CCN1CCC(O)(c2ccc(Oc3ccc(Cl)cc3)cc2)C(C(=O)c2ccc(Oc3ccc(Cl)cc3)cc2)C1 (configuration not stated)', 'growth inhibition', -10),
  ('S=C1C(=Nc2ccccc2)N(c2ccccc2)/C(=N\c2ccccn2)N1c1ccccc1', 'growth inhibition', -2),
  ('O=C1C(=C2CCCC2)CCC1CN1CCCCC1 (configuration not stated)', 'growth inhibition', 3),
  ('CCS(=O)(=O)Nc1ccc(Nc2c3ccccc3nc3ccccc23)c(OC)c1', 'growth inhibition', 62),
  ('O=C(O)c1ccccc1C(=O)OC1CCc2ccccc2C1 (configuration not stated)', 'growth inhibition', -3),
  ('CCN(CC)CCNc1ccc2nc(C)n3c4ccc(O)cc4c(=O)c1c23', 'growth inhibition', 40),
  ('CCCCCCCCCCCCCCCCCCNc1nc(=O)n(C2CC(OP(=O)(O)OCC3OC(n4cc(F)c(=O)[nH]c4=O)CC3O)C(CO)O2)cc1F (configuration not stated)', 'growth inhibition', 14),
  ('O=[N+]([O-])c1ccc2[nH]c3c(-c4ccccc4)nccc3c2c1', 'growth inhibition', -1),
  ('CC1=CN2C(c3ccccc3)=NON(c3ccc(C)cn3)C2C=C1 (configuration not stated)', 'growth inhibition', 2),
  ('O=P(C(=S)Nc1c(Cl)cccc1Cl)(c1ccccc1)c1ccccc1', 'growth inhibition', 21),
  ('CCCCCCCCNCCCCCCCC', 'growth inhibition', 4),
  ('O=C1C[C@H]2[C@H](c3ccc(Br)cc3)[C@H]3C(=O)c4ccccc4NC(=O)[C@@H]3[C@@]2(O)c2ccccc2N1', 'growth inhibition', 5),
  ('O=C(Cc1ccccc1)NNc1nc(NNC(=O)c2ccncc2)nc(Nc2ccc(Cl)cc2)n1', 'growth inhibition', 16),
  ('COc1ccc2nc3cccc([N+](=O)[O-])c3c(NCCCCCC(=O)O)c2c1', 'growth inhibition', 87);

---

# Test Details: NCI Yeast Anticancer Drug Screen. Data for the wt1 strain (AID 149);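 also: 0% = growth of vehicle-treated wt1 cultures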
# Settings: S. cerevisiae wt1 strain (SPY 50644) growth inhibition; at 33.0 µM; stronger effect = higher value
# Protocol: Growth inhibition of yeast strains with defined genetic alterations is measured as a screen for potential anti-cancer activity. Selected strains with alterations in DNA damage repair or cell cycle control were exposed to compounds and growth inhibition was measured relative to vehicle treated controls. The strain used in this assay is wt1
The panel holds about 79,000 compounds, 15% with a hit somewhere; the sample as a whole holds those more often. Residues, ends and D or L forms follow the SMILES beside them. *: point of attachment. Fmoc = O=C(OCC1c2ccccc2-c2ccccc21)*; Boc = CC(C)(C)OC(=O)*
Quantity Kind: growth inhibition (%)

INSERT INTO results (compound, measurement_unit, data_value) VALUES
  ('O=C1C(=C2CCCC2)CCC1CN1CCCCC1 (stereo not drawn)', '%', 30),
  ('CN(C)/C(=N/C(=S)Nc1ccccc1)SCc1ccccc1', '%', 6),
  ('CC12CCC(CC(=O)/C1=C(/Br)I)C2(C)C (stereo not drawn)', '%', -6),
  ('COc1ccccc1NC(=O)c1ccc(Cl)cc1', '%', 0),
  ('CC(C)(C)OC(=O)NCCCCC(NC(=O)C(Cc1c[nH]c2ccccc12)NC(=O)OCC1c2ccccc2-c2ccccc21)C(=O)O (stereo not drawn) (Fmoc-Trp-Lys(Boc)-OH; configuration not given here)', '%', 2),
  ('CCCCN(CCC#N)c1ccc(/C=C/c2ccnc3ccccc23)cc1', '%', 66),
  ('CC(CN(C)C)C(=O)/C=C/c1ccc(Cl)c(Cl)c1 (stereo not drawn)', '%', 24),
  ('S=C1C(=Nc2ccccc2)N(c2ccccc2)/C(=N\c2ccccn2)N1c1ccccc1', '%', 98),
  ('c1ccc(-c2cc(C3CO3)c3ccccc3n2)cc1 (stereo not drawn)', '%', 2),
  ('CN(C)CC(CN(C)C)C(=O)/C=C/c1ccc(Cl)cc1Cl', '%', 98),
  ('CCS(=O)(=O)Nc1ccc(Nc2c3ccccc3nc3ccccc23)c(OC)c1', '%', -4),
  ('CC(C)OC(=O)NNc1cc(Cl)ccc1Cl', '%', 34),
  ('Cc1ccccc1NC(=O)c1c(C)oc2c1C(=O)c1ccccc1C2=O', '%', -5),
  ('COC(=O)C(=O)c1c(-c2ccc(Cl)c(Cl)c2)[nH]c2[nH]n(-c3ccccc3)c(=O)c2c1=O', '%', 54),
  ('O=C1c2cccc3cccc(c23)C(=O)N1O', '%', 24),
  ('CC/C(=C(\c1ccccc1)c1ccc(OCC[N+](C)(C)C)cc1)c1ccccc1', '%', 99),
  ('CCCCCCNCCCNc1c2cc(OC)ccc2nc2cccc([N+](=O)[O-])c12', '%', 59),
  ('O=C1c2ccccc2-c2ccc(N=Cc3ccccc3)cc21', '%', 27),
  ('O=C(c1cc(=O)c2ccc(O)cc2o1)c1ccc(Cl)cc1Cl', '%', 75),
  ('COC(=O)C(=O)CC(=O)c1cccc(OC)c1', '%', 28),
  ('C=CC(C)(C)N1C(=O)C(C(C)=O)=C(O)C1Cc1c[nH]c2ccccc12 (stereo not drawn)', '%', 20),
  ('CC1=CC(C)(C)SC(SSSC2=NC(C)=CC(C)(C)S2)=N1', '%', 7),
  ('CC1(C)CC(=O)C(C(=O)Nc2cccs2)=C(O)C1', '%', 50);
